Molecular target: P-glycoprotein (P-gp, MDR1) (Homo sapiens)
Sequence (P08183 whole entry): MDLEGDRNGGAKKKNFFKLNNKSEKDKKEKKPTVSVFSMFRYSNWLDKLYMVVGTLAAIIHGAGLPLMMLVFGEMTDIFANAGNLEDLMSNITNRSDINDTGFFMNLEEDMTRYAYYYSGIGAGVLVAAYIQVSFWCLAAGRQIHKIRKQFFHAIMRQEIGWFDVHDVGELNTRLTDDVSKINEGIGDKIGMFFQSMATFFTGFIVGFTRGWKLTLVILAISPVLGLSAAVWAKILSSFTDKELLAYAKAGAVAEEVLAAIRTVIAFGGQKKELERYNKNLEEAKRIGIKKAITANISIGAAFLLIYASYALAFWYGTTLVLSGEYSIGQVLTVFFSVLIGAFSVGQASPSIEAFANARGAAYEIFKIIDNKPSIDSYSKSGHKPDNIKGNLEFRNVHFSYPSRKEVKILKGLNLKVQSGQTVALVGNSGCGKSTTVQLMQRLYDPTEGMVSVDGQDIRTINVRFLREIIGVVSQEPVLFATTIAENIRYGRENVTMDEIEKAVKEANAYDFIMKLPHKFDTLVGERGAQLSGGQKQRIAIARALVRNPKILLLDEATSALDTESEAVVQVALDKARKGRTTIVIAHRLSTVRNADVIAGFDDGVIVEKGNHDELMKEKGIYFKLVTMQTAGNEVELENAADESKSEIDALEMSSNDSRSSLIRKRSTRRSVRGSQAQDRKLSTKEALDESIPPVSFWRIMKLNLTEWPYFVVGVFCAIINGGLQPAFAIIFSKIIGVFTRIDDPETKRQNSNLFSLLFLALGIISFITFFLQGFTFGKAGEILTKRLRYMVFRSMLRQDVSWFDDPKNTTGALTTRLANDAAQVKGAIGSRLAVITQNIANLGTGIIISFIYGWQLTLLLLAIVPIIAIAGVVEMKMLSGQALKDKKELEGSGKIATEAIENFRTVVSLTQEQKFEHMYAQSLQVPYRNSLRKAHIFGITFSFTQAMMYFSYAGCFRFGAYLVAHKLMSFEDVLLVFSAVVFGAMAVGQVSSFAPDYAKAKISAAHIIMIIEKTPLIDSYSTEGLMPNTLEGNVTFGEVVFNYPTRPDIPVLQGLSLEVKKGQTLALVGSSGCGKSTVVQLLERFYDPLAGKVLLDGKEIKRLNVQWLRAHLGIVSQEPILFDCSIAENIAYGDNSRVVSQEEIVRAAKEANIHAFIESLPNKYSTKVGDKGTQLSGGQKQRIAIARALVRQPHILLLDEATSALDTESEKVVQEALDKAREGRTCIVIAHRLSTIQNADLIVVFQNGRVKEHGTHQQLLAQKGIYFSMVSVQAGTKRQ
Test: basal-to-apical [3H]digoxin flux in MDCK-hMDR1-cMDR1-KO cells, dose-response
quantity_measured: IC50 (µM)
# value in µM; strip the unit string

Entry under test: CCN(Cc1cccc(S(=O)(=O)O)c1)c1ccc(C(=C2C=CC(=[N+](CC)Cc3cccc(S(=O)(=O)[O-])c3)C=C2)c2ccc(S(=O)(=O)O)cc2)cc1 . Its IC50 was 204
